Test system: Canis familiaris
Test: In vivo intraduodenal activity in mongrel dogs was assessed by % change in blood pressure (10 mg/kg administered intradermally)
Assay type: functional, Canis lupus familiaris, Artery
Details: in the assay text read “intraduodenally” for “intradermally”
OBSERVATION_TYPE: Blood pressure (%)
Provide only the numeric value, understood in %.

Known results for molecules:
Problem: So what does the record say about Blood pressure for CCCCCCC[n+]1ccn(CC(O)c2ccc(NS(C)(=O)=O)cc2)c1.O=P([O-])(O)O (stereo unspecified) ?
Result: 6

Problem: So what does the record say about Blood pressure for Cc1n(CC(O)c2ccc(NS(C)(=O)=O)cc2)cc[n+]1C.[Cl-] (stereo unspecified) ?
Result: 3

Problem: So what does the record say about Blood pressure for C[n+]1ccn(CC(O)c2ccc(NS(C)(=O)=O)cc2)c1.[Cl-] (stereo unspecified) ?
Result: 5

Problem: So what does the record say about Blood pressure for Cc1c(C)[n+](C)c(C)n1CC(O)c1ccc(NS(C)(=O)=O)cc1.[Cl-] (stereo unspecified) ?
Result: 19

---
Problem: So what does the record say about Blood pressure for CCCCCCC[N+](CC)(CC)CCCCc1ccc(Cl)cc1.O=P([O-])(O)O [CLOFILIUM PHOSPHATE] ?
Result: -4

Problem: So what does the record say about Blood pressure for C[n+]1ccn(CCC(=O)c2ccc(NS(C)(=O)=O)cc2)c1.[Cl-] ?
Result: 6
